experiment: Phage ELISA of phage binding to hair; design: species or system human; conditions: phage-displayed peptide, 1×10^11 pfu; A450; relative to HP2-TonB-Gray3 = 100
property-label: ELISA (%) relative to the activity of HP2-TonB-Gray3

# molecule, u, measured-number
measured = [
    ("Gray5-(EAAAKLL)3-Gray3: hair-binding domain, SEQ ID NO: 92 (peptide) PSTAEIQSSKNPNPHPQRSWTNGPEAAAKLLEAAAKLLEAAAKLLPAHDHKNQKETHQRHAAGS", "%", 60),
    ("HP2-(EEAAKK)4-MEA4: hair-binding domain, SEQ ID NO: 75 (peptide) PSAQSQLPDKHSGLHERAPQRYGPEEAAKKEEAAKKEEAAKKEEAAKKPAHINKTNPHQGNHHSEKTQRQGS", "%", 170),
    ("MEA4-[(KP)6GG]2-MEA4: hair-binding domain, SEQ ID NO: 102 (peptide) PSHINKTNPHQGNHHSEKTQRQGPKPKPKPKPKPKPGGKPKPKPKPKPKPGGPAHINKTNPHQGNHHSEKTQRQGS", "%", 1),
    ("Gray5-[(KP)6GG]2-Gray4A: hair-binding domain, SEQ ID NO: 78 (peptide) PSTAEIQSSKNPNPHPQRSWTNGPKPKPKPKPKPKPGGKPKPKPKPKPKPGGPAHNHMQERYTAPQHSPSVNGLGS", "%", 1),
]
